Overview of recorded minimum inhibitory concentration for various compounds
test system: Histophilus somni; assay: minimum inhibitory concentration (MIC); conditions: isolate (source animal id): 246
Assay metric: minimum inhibitory concentration

{"Sample smiles": "CCCNC[C@]1(O)[C@H](C)O[C@@H](O[C@H]2[C@H](C)[C@@H](O[C@@H]3O[C@H](C)C[C@H](N(C)C)[C@H]3O)[C@](C)(O)C[C@@H](C)CN[C@H](C)[C@@H](O)[C@](C)(O)[C@@H](CC)OC(=O)[C@@H]2C)C[C@@]1(C)OC", "Assay metric": "minimum inhibitory concentration", "Reported": "≤ 8 µg/mL"}
{"Sample smiles": "CO/N=C(\\C(=O)N[C@@H]1C(=O)N2C(C(=O)O)=C(CSC(=O)c3ccco3)CS[C@H]12)c1csc(N)n1", "Assay metric": "minimum inhibitory concentration", "Reported": "≤ 0.25 µg/mL"}
{"Sample smiles": "CCCN1C[C@H](C)[C@@H](O)[C@](C)(O)[C@@H](CC)OC(=O)[C@H](C)[C@@H](O[C@H]2C[C@@](C)(OC)[C@@H](O)[C@H](C)O2)[C@H](C)[C@@H](O[C@@H]2O[C@H](C)C[C@H](N(C)C)[C@H]2O)[C@](C)(O)C[C@H]1C", "Assay metric": "minimum inhibitory concentration", "Reported": "≤ 1 µg/mL"}

---

system: Escherichia coli; test: minimum inhibitory concentration (MIC); settings: isolate (source animal id): 186

{"Sample smiles": "CCN1CCN(c2cc3c(cc2F)c(=O)c(C(=O)O)cn3C2CC2)CC1", "minimum inhibitory concentration": "≤ 0.12 µg/mL"}
{"Sample smiles": "NC[C@@H]1O[C@H](O[C@H]2[C@@H](O)[C@H](O[C@@H]3[C@@H](O)[C@H](N)C[C@H](N)[C@H]3O[C@H]3O[C@H](CN)[C@@H](O)[C@H](O)[C@H]3N)O[C@@H]2CO)[C@H](N)[C@@H](O)[C@@H]1O", "minimum inhibitory concentration": "≤ 4 µg/mL"}
{"Sample smiles": "COc1cc(NS(=O)(=O)c2ccc(N)cc2)nc(OC)n1", "minimum inhibitory concentration": "≤ 256 µg/mL"}
{"Sample smiles": "C=C[C@]1(C)C[C@@H](OC(=O)CSCCN(CC)CC)[C@]2(C)[C@H](C)CC[C@]3(CCC(=O)[C@H]32)[C@@H](C)[C@@H]1O", "minimum inhibitory concentration": "> 32 µg/mL"}

---

system: Pasteurella multocida; assay: minimum inhibitory concentration (MIC); conditions: isolate (source animal id): 19
Overview of recorded minimum inhibitory concentration for various molecules

{"Molecule": "CN(C)[C@@H]1C(O)=C(C(N)=O)C(=O)[C@@]2(O)C(O)=C3C(=O)c4c(O)cccc4[C@@](C)(O)[C@H]3C[C@@H]12 [Tetracycline]", "minimum inhibitory concentration": "> 8 µg/mL"}
{"Molecule": "COc1cc(NS(=O)(=O)c2ccc(N)cc2)nc(OC)n1 [sulfadimethoxine]", "minimum inhibitory concentration": "> 256 µg/mL"}
{"Molecule": "CN1C[C@@H]2C[C@H]1CN2c1cc2c(cc1F)c(=O)c(C(=O)O)cn2C1CC1 [Danofloxacin]", "minimum inhibitory concentration": "> 1 µg/mL"}

---

Overview of recorded minimum inhibitory concentration for various molecules
test system: Histophilus somni; experiment: minimum inhibitory concentration (MIC); conditions: isolate (source animal id): 23

{"Sample smiles": "CCCNC[C@]1(O)[C@H](C)O[C@@H](O[C@H]2[C@H](C)[C@@H](O[C@@H]3O[C@H](C)C[C@H](N(C)C)[C@H]3O)[C@](C)(O)C[C@@H](C)CN[C@H](C)[C@@H](O)[C@](C)(O)[C@@H](CC)OC(=O)[C@@H]2C)C[C@@]1(C)OC", "minimum inhibitory concentration": "≤ 8 µg/mL"}
{"Sample smiles": "COc1cc(NS(=O)(=O)c2ccc(N)cc2)nc(OC)n1", "minimum inhibitory concentration": "> 256 µg/mL"}
{"Sample smiles": "COc1cc(Cc2cnc(N)nc2N)cc(OC)c1OC.Cc1cc(NS(=O)(=O)c2ccc(N)cc2)no1", "minimum inhibitory concentration": "≤ 2 µg/mL"}
